Tested target: T1, DFNB31_1/K212E (with Y167W) (human, UniProt Q9P202 136-224, K212E | Y167W)
T1 construct: first PDZ domain of human DFNB31 (whirlin); predicted PDZ domain with ten amino acids added on each side
T1 sequence: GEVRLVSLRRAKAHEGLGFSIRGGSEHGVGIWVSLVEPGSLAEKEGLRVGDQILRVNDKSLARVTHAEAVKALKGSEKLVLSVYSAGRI
Experimental details: other fluorescence titration; equilibrium titration of peptide into Trp-engineered PDZ domain kept constant at 3 µM, followed by intrinsic tryptophan fluorescence; 25°C, 25 mM HEPES, 150 mM NaCl, pH 7.2, 1 mM beta-mercaptoethanol
Conditions used: both partners purified
Quantity kind: Kd (µM)
All answers are understood in µM, so give the number only.

Requested read-out: Kd. Entry: FTDTHL (last six residues; also called FTDTHL peptide; source: synthetic peptide, bought: GeneCust (purity >95%)) [C-terminal peptide of usher (FTDTHL)]
220
